Values were extracted from the Deep4Chem optical property database.

# measurement-protocol: solvent given as SMILES
# conditions-used: in [2H]O[2H]
observation-type: log10 fluorescence lifetime (log10 of the value in ns)
Each number you see is log10 of fluorescence lifetime, and the unit inside the log is ns.

Known log10 fluorescence lifetime results, listed for orientation:
- compound: "Cc1nc2c(c[n+]1C)CN1C(=O)N([C@H]3O[C@@H](CO)[C@H](O)[C@@H]3O)C=CC1=N2"
  log10 fluorescence lifetime: 0.27
- compound: "N#Cc1ccc2[nH]ccc2c1"
  log10 fluorescence lifetime: -0.40
- compound: "N#Cc1cccc2cc[nH]c12"
  log10 fluorescence lifetime: 0.36
- compound: "Cc1c2oc3c(C)c(N)cc(C(=O)NC4OC(=O)C(C(C)C)N(C)C(=O)CN(C)C(=O)C5CCCN5C(=O)C(C(C)C)NC4=O)c3nc-2c(C(=O)NC2OC(=O)C(C(C)C)N(C)C(=O)CN(C)C(=O)C3CCCN3C(=O)C(C(C)C)NC2=O)c(N)c1=O (stereo unspecified)"
  log10 fluorescence lifetime: 0.03
- compound: "O=C([O-])c1ccccc1-c1c2ccc(=O)cc-2oc2cc([O-])ccc12"
  log10 fluorescence lifetime: 0.64

API: the following record is the query input.
Note log10 fluorescence lifetime for the compound shown: N#Cc1ccc2cc[nH]c2c1
-0.10

====

Consider the following compounds; for each one, report its fluorescence lifetime.
# measurement-protocol: solvent given as SMILES
# conditions-used: in CCCCCCC
Give bare numbers, in ns.

Known fluorescence lifetime results, listed for orientation:
- structure-string: "COc1ccc(C#Cc2ccc(C#N)cc2)cc1"
  observation-type: "fluorescence lifetime"
  observed-result: 0.35
- structure-string: "COc1nc(Nc2cc3ccc4cccc5ccc(c2)c3c45)nc(OC)n1"
  observation-type: "fluorescence lifetime"
  observed-result: 112
- structure-string: "N#Cc1cccc2ccccc12"
  observation-type: "fluorescence lifetime"
  observed-result: 17.7
- structure-string: "c1ccc(Nc2nc(Nc3ccccc3)nc(Nc3ccc4ccc5cccc6ccc3c4c56)n2)cc1"
  observation-type: "fluorescence lifetime"
  observed-result: 4.3
- structure-string: "c1ccc(Nc2nc(Nc3ccccc3)nc(Nc3cc4ccc5cccc6ccc(c3)c4c56)n2)cc1"
  observation-type: "fluorescence lifetime"
  observed-result: 102
- structure-string: "CN(C)c1ccc2nc(/C=C/c3ccccc3)c(=O)oc2c1"
  observation-type: "fluorescence lifetime"
  observed-result: 2.8
- structure-string: "CCC1(CC)c2cc(-c3ccc(C(C)(C)C)cc3)ccc2-c2ccc(-c3ccc4c(c3)C(CC)(CC)c3cc(-c5ccc6c(c5)C(CC)(CC)c5cc(-c7ccc(C(C)(C)C)cc7)ccc5-6)ccc3-4)cc21"
  observation-type: "fluorescence lifetime"
  observed-result: 0.61
- structure-string: "COc1ncccc1B(O)O"
  observation-type: "fluorescence lifetime"
  observed-result: 0.253

Would you mind listing fluorescence lifetime for each of the following compounds?
1. CCC1(CC)c2cc(-c3ccc4c(c3)C(CC)(CC)c3cc(C(C)(C)C)ccc3-4)ccc2-c2ccc(-c3ccc4c(c3)C(CC)(CC)c3cc(C(C)(C)C)ccc3-4)cc21
2. CN(C)c1ccc2nc(/C=C/c3cc4c5c(c3)CCCN5CCC4)c(=O)oc2c1
3. CCC1(CC)c2cc(-c3ccc(-c4ccc5c(c4)C(CC)(CC)c4cc(C(C)(C)C)ccc4-5)cc3)ccc2-c2ccc(C(C)(C)C)cc21
4. N#C[Se]CCCCCOc1ccc2ccc(=O)oc2c1

[0.67, 2.02, 0.7, 0.16]
